# Cyno Primary Hepatocyte Editing % 100 per record follows
# Test system: PCSK9 gene
# assayRemarks: PCSK9 gRNA/SpCas9 editing in primary cynomolgus hepatocytes (Tables 2, 22)
# Type: cell-based, cynomolgus monkey
# experimentalContext: 100 ng/RNA/mL; SpCas9 mRNA MS002 1:1 by weight
In the oligonucleotide strings, read from the 5' end, every base follows the letter of its sugar. An asterisk marks phosphorothioate; unmarked linkages are phosphodiester. Other units and linkages are bracketed, terminal groups are in braces. A string of capitals states the bases alone. m = 2'-O-methyl; r = 2'-OH (RNA)
Write down the value, and be sure its unit follows.

// solved cases for Cyno Primary Hepatocyte Editing % 100 follow
molecule	attributeMeasured	result
GA192: PCSK9 gRNA; protospacer CCATGTCGACTACATCGAGG (SEQ ID NO: 186) (nucleic acid) guide: mC*mC*mA*rUrGrUrCrGrArCrUrArCrArUrCrGrArGrGrGrUrUrUrUrArGrArGrCrUrArGrArArArUrArGrCrArArGrUrUrArArArArUrArArGrGrCrUrArGrUrCrCrGrUrUrArUrCrArArCrUrUrGrArArArArArGrUrGrGrCrArCrCrGrArGrUrCrGrGrUrGrCrU*mU*mU*mU	Cyno Primary Hepatocyte Editing % 100	0.60%
GA208: PCSK9 gRNA; protospacer CCAGCATACAGAGTGACCAC (SEQ ID NO: 202) (nucleic acid, sugars from the 5' end m3 r94 m3, linkages s3 o93 s3 (s phosphorothioate, o phosphodiester), T or U not given here) guide: CCAGCAUACAGAGUGACCACGUUUUAGAGCUAGAAAUAGCAAGUUAAAAUAAGGCUAGUCCGUUAUCAACUUGAAAAAGUGGCACCGAGUCGGUGCUUUU	Cyno Primary Hepatocyte Editing % 100	1.15%
GA223: PCSK9 gRNA; protospacer GCTGACCACCCCTGCCAGGT (SEQ ID NO: 217) (nucleic acid, sugars from the 5' end m3 r94 m3, linkages s3 o93 s3 (s phosphorothioate, o phosphodiester), T or U not given here) guide: GCUGACCACCCCUGCCAGGUGUUUUAGAGCUAGAAAUAGCAAGUUAAAAUAAGGCUAGUCCGUUAUCAACUUGAAAAAGUGGCACCGAGUCGGUGCUUUU	Cyno Primary Hepatocyte Editing % 100	3.46%
GA183: PCSK9 gRNA; protospacer CTACGTGGTGGTGCTGAAGG (SEQ ID NO: 177) (nucleic acid) guide: mC*mU*mA*rCrGrUrGrGrUrGrGrUrGrCrUrGrArArGrGrGrUrUrUrUrArGrArGrCrUrArGrArArArUrArGrCrArArGrUrUrArArArArUrArArGrGrCrUrArGrUrCrCrGrUrUrArUrCrArArCrUrUrGrArArArArArGrUrGrGrCrArCrCrGrArGrUrCrGrGrUrGrCrU*mU*mU*mU	Cyno Primary Hepatocyte Editing % 100	2.87%
GA237: PCSK9 gRNA; protospacer CAACGCCGCCTGCCAGCGCC (SEQ ID NO: 230) (nucleic acid, sugars from the 5' end m3 r94 m3, linkages s3 o93 s3 (s phosphorothioate, o phosphodiester), T or U not given here) guide: CAACGCCGCCUGCCAGCGCCGUUUUAGAGCUAGAAAUAGCAAGUUAAAAUAAGGCUAGUCCGUUAUCAACUUGAAAAAGUGGCACCGAGUCGGUGCUUUU	Cyno Primary Hepatocyte Editing % 100	2.17%

The recorded Cyno Primary Hepatocyte Editing % 100 for GA210: PCSK9 gRNA; protospacer CTGCGCGTGCTCAACTGCCA (SEQ ID NO: 204) (nucleic acid, sugars from the 5' end m3 r94 m3, linkages s3 o93 s3 (s phosphorothioate, o phosphodiester), T or U not given here) guide: CUGCGCGUGCUCAACUGCCAGUUUUAGAGCUAGAAAUAGCAAGUUAAAAUAAGGCUAGUCCGUUAUCAACUUGAAAAAGUGGCACCGAGUCGGUGCUUUU is 4.5%

Recorded Cyno Primary Hepatocyte Editing % 100 (molecule GA214: PCSK9 gRNA; protospacer CCTTGGCCACGCCGGCATCC (SEQ ID NO: 208) (nucleic acid, sugars from the 5' end m3 r94 m3, linkages s3 o93 s3 (s phosphorothioate, o phosphodiester), T or U not given here) guide: CCUUGGCCACGCCGGCAUCCGUUUUAGAGCUAGAAAUAGCAAGUUAAAAUAAGGCUAGUCCGUUAUCAACUUGAAAAAGUGGCACCGAGUCGGUGCUUUU ): 3.06%

Query GA217: PCSK9 gRNA; protospacer GTGGTCAGCGGCCGGGATGC (SEQ ID NO: 211) (nucleic acid, sugars from the 5' end m3 r94 m3, linkages s3 o93 s3 (s phosphorothioate, o phosphodiester), T or U not given here) guide: GUGGUCAGCGGCCGGGAUGCGUUUUAGAGCUAGAAAUAGCAAGUUAAAAUAAGGCUAGUCCGUUAUCAACUUGAAAAAGUGGCACCGAGUCGGUGCUUUU yields Cyno Primary Hepatocyte Editing % 100 of 2.6%

Recorded Cyno Primary Hepatocyte Editing % 100 (molecule GA174: PCSK9 gRNA; protospacer GGATCTTGGTGAGGTATCCC (SEQ ID NO: 168) (nucleic acid, sugars from the 5' end m3 r94 m3, linkages s3 o93 s3 (s phosphorothioate, o phosphodiester), T or U not given here) guide: GGAUCUUGGUGAGGUAUCCCGUUUUAGAGCUAGAAAUAGCAAGUUAAAAUAAGGCUAGUCCGUUAUCAACUUGAAAAAGUGGCACCGAGUCGGUGCUUUU ): 1.60%

Measured Cyno Primary Hepatocyte Editing % 100, GA185: PCSK9 gRNA; protospacer AGACATGCAGGATCTTGGTG (SEQ ID NO: 179) (nucleic acid) guide: mA*mG*mA*rCrArUrGrCrArGrGrArUrCrUrUrGrGrUrGrGrUrUrUrUrArGrArGrCrUrArGrArArArUrArGrCrArArGrUrUrArArArArUrArArGrGrCrUrArGrUrCrCrGrUrUrArUrCrArArCrUrUrGrArArArArArGrUrGrGrCrArCrCrGrArGrUrCrGrGrUrGrCrU*mU*mU*mU : 1.14%

Value of Cyno Primary Hepatocyte Editing % 100 reported for the molecule GA200: PCSK9 gRNA; protospacer CTAGGAGATACACCTCCACC (SEQ ID NO: 194) (nucleic acid, sugars from the 5' end m3 r94 m3, linkages s3 o93 s3 (s phosphorothioate, o phosphodiester), T or U not given here) guide: CUAGGAGAUACACCUCCACCGUUUUAGAGCUAGAAAUAGCAAGUUAAAAUAAGGCUAGUCCGUUAUCAACUUGAAAAAGUGGCACCGAGUCGGUGCUUUU is 5.15%

Every entry's value here was drawn from patent US20250152746A1.
